Source listed as ChEMBL document CHEMBL3763063.

Form: system (Epidermal growth factor receptor (Homo sapiens, UniProt P00533, L858R/T790M)), quantity (pIC50), values below.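 Further: recombinant enzyme, cytoplasmic domain autophosphorylation read out by Z'-Lyte assay, IC50 reflects decrease in autophosphorylation.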
pIC50: −log10 of the molar value.
endpoint: pIC50

1. COCCOc1cc2ncnc(Nc3cccc(NC(=O)C45CC6CC(CC(C6)C4)C5)c3)c2cc1OCCOC 7.84
2. COc1cc2ncnc(Nc3ccc(C(=O)NC45CC6CC(CC(C6)C4)C5)c(C#N)c3)c2cc1OCCCN1CCOCC1 8.24
3. COc1cc2ncnc(Nc3ccc(C(=O)NC45CC6CC(CC(C6)C4)C5)cc3)c2cc1OCCCN1CCOCC1 8.27
4. COc1cc2ncnc(Nc3cccc(NC(=O)C45CC6CC(CC(C6)C4)C5)c3)c2cc1OCCCN1CCOCC1 6.80

====

methodSummary: Antiproliferative activity against human HCC827 cells harboring EGFR E746 to A750 deletion mutant assessed as reduction in cell viability after 72 hrs by MTT assay
Assay type: functional, cell-based
conditionParameters: HCC827, 72 h
pIC50: −log10 of the molar value.
Form field: pIC50 (one value per entry).
endpoint: pIC50

1) COc1cc2ncnc(Nc3ccc(C(=O)NC45CC6CC(CC(C6)C4)C5)cc3)c2cc1OCCCN1CCOCC1 8.05
2) COCCOc1cc2ncnc(Nc3ccc(C(=O)NC45CC6CC(CC(C6)C4)C5)cc3)c2cc1OCCOC 7.42
3) COc1cc2ncnc(Nc3ccc(C(=O)NC45CC6CC(CC(C6)C4)C5)c(Cl)c3)c2cc1OCCCN1CCOCC1 8.05

====

System: MCF7;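 further: antiproliferative effect measured by MTT assay in EGFR-overexpressing MCF7 cells, with IC50 based on the drop in viable cells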
methodSummary: cells
Format: functional, cell-based
conditionParameters: Homo sapiens, MCF7, 72 h
Description: Antiproliferative activity against human MCF7 cells overexpressing EGFR assessed as reduction in cell viability after 72 hrs by MTT assay
pIC50: −log10 of the molar value.
Entries and their pIC50
endpoint: pIC50

1) COCCOc1cc2ncnc(Nc3ccc(C(=O)NC45CC6CC(CC(C6)C4)C5)cc3)c2cc1OCCOC 5.90
2) COCCOc1cc2ncnc(Nc3ccc(NC(=O)C45CC6CC(CC(C6)C4)C5)c(OC)c3)c2cc1OCCOC 5.28
3) COc1cc2ncnc(Nc3cc(C(=O)NC45CC6CC(CC(C6)C4)C5)ccc3C)c2cc1OCCCN1CCOCC1 5.04
4) COc1cc2ncnc(Nc3ccc(C(=O)NC45CC6CC(CC(C6)C4)C5)cc3)c2cc1OCCCN1CCOCC1 4.92
5) COc1cc2ncnc(Nc3cccc(NC(=O)C45CC6CC(CC(C6)C4)C5)c3)c2cc1OCCCN1CCOCC1 5.00
6) COCCOc1cc2ncnc(Nc3ccc(NC(=O)C45CC6CC(CC(C6)C4)C5)c(C)c3)c2cc1OCCOC 5.08
7) COCCOc1cc2ncnc(Nc3ccc(NC(=O)C45CC6CC(CC(C6)C4)C5)cc3C)c2cc1OCCOC 5.27
8) COc1cc2ncnc(Nc3ccc(C(=O)NC45CC6CC(CC(C6)C4)C5)c(Cl)c3)c2cc1OCCCN1CCOCC1 5.26

====

methodSummary: Antiproliferative activity against human HCC827 cells harboring EGFR E746 to A750 deletion mutant assessed as reduction in cell viability after 72 hrs by MTT assay
Format: functional, cell-based
conditionParameters: HCC827, 72 h
endpoint: IC50 (nM)

1) COCCOc1cc2ncnc(Nc3ccc(NC(=O)C45CC6CC(CC(C6)C4)C5)cc3C)c2cc1OCCOC 25
2) COc1cc2ncnc(Nc3ccc(C(=O)NC45CC6CC(CC(C6)C4)C5)c(C#N)c3)c2cc1OCCCN1CCOCC1 20
3) COCCOc1cc2ncnc(Nc3cccc(NC(=O)C45CC6CC(CC(C6)C4)C5)c3)c2cc1OCCOC 30
4) COCCOc1cc2ncnc(Nc3ccc(NC(=O)C45CC6CC(CC(C6)C4)C5)c(C)c3)c2cc1OCCOC 23
5) COc1cc2ncnc(Nc3cccc(NC(=O)C45CC6CC(CC(C6)C4)C5)c3)c2cc1OCCCN1CCOCC1 35
6) COc1cc2ncnc(Nc3cccc(C(=O)NC45CC6CC(CC(C6)C4)C5)c3)c2cc1OCCCN1CCOCC1 20
7) COc1cc2ncnc(Nc3cc(C(=O)NC45CC6CC(CC(C6)C4)C5)ccc3C)c2cc1OCCCN1CCOCC1 14

====

Test system: NCI-H1975;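 further: growth inhibition of EGFR L858R/T790M double-mutant cells, measured as decreased viability by MTT readout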
methodSummary: cells
Format: functional, cell-based
conditionParameters: Homo sapiens, NCI-H1975, 72 h
Description: Antiproliferative activity against human NCI-H1975 cells harboring EGFR L858R/T790M double mutant assessed as reduction in cell viability after 72 hrs by MTT assay
pIC50: −log10 of the molar value.
endpoint: pIC50

1. COc1cc2ncnc(Nc3ccc(C(=O)NC45CC6CC(CC(C6)C4)C5)c(C#N)c3)c2cc1OCCCN1CCOCC1 4.58
2. COc1cc2ncnc(Nc3cccc(C(=O)NC45CC6CC(CC(C6)C4)C5)c3)c2cc1OCCCN1CCOCC1 4.51
3. COCCOc1cc2ncnc(Nc3ccc(NC(=O)C45CC6CC(CC(C6)C4)C5)c(C)c3)c2cc1OCCOC 4.67
4. COCCOc1cc2ncnc(Nc3cccc(NC(=O)C45CC6CC(CC(C6)C4)C5)c3)c2cc1OCCOC 4.73
5. COc1cc2ncnc(Nc3cc(C(=O)NC45CC6CC(CC(C6)C4)C5)ccc3C)c2cc1OCCCN1CCOCC1 4.77
6. COCCOc1cc2ncnc(Nc3ccc(NC(=O)C45CC6CC(CC(C6)C4)C5)cc3C)c2cc1OCCOC 4.78
7. COCCOc1cc2ncnc(Nc3ccc(NC(=O)C45CC6CC(CC(C6)C4)C5)c(C#N)c3)c2cc1OCCOC 4.42
8. COc1cc2ncnc(Nc3ccc(C(=O)NC45CC6CC(CC(C6)C4)C5)c(Cl)c3)c2cc1OCCCN1CCOCC1 5.23
9. COCCOc1cc2ncnc(Nc3ccc(NC(=O)C45CC6CC(CC(C6)C4)C5)c(OC)c3)c2cc1OCCOC 4.48
10. COCCOc1cc2ncnc(Nc3ccc(C(=O)NC45CC6CC(CC(C6)C4)C5)cc3)c2cc1OCCOC 4.91
11. COc1cc2ncnc(Nc3cccc(NC(=O)C45CC6CC(CC(C6)C4)C5)c3)c2cc1OCCCN1CCOCC1 4.44
